Measured values drawn from paper doi:10.1101/2024.01.09.574928 for this set.

Molecular target: T1, SCAF4-CID (human, UniProt O95104 1-139)
T1 sequence: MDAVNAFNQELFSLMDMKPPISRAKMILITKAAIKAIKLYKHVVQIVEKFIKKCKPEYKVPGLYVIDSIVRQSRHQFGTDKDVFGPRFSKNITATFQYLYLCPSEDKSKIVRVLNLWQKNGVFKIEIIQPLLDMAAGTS
Assay: SPR
Measured Parameter: pKd
Please treat pKd as minus the base-10 logarithm of the molar concentration.

Asked: Using the record for CAGGTGGGTTC (ssDNA) [SRiApt-2 (F7_11nt_B)] , report its pKd.
Given back: 7.13

Asked: Entry TTAAAGGGGTGGGGAGTCAT (ssDNA) [SRiApt-3] please
Given back: 7.64

Asked: Entry GGGTGGGA (ssDNA) [F1_8nt] please
Given back: 7.05

Asked: Entry GGGGTGGGGAG (ssDNA) [SRiApt-1 (SCAF4_F3_11nt)] please
Given back: 7.23

Asked: Entry GTGGG (ssDNA) [SCAF4_LS (D2_5nt)] please
Given back: 6.85

Asked: Entry AGGTGGGT (ssDNA) [B2_8nt] please
Given back: 6.53
